Test system: OVCAR-8 ovarian
Assay: NCI-60 one-dose screen, 48 h (100 = growth as untreated, 0 = no growth, -100 = all killed)
Conditions: 10 µM unless noted
Compounds without any hit were thinned out: in the full panel of roughly 83,000, 20% have a hit. The source made the active and inactive calls. The calls were made as follows: active = growth percent below 10; inactive = the rest.
Kindly state growth for each of the entries shown.

Known results for molecules:
COC1(OC)C2(Cl)C=C(c3ccccc3)C1(Cl)C(Cl)=C2Cl (stereo not drawn)
93.8% (inactive)
COc1ccc(-c2[nH]ncc2Nc2cc(OC)c(OC)c(OC)c2)cc1
58.1% (inactive)
O=C1C2CC3C(CC2C(=O)[N]1[Sn]([c]1ccccc1)([c]1ccccc1)[c]1ccccc1)C1(Cl)C(Cl)=C(Cl)C3(Cl)C1(Cl)Cl (stereo not drawn)
-97.5% (active)
O/N=C/c1cccs1
98.3% (inactive)

The following molecules each have a reported value; give each one's growth.
1. C[C@@H](Oc1cc(-c2cnn(C3CC4(CCCNC4)C3)c2)cnc1N)c1c(Cl)ccc(F)c1Cl (stereo partly drawn)
2. O=[N+]([O-])c1cc2c(cc1Br)C1C(C3C2C(Cl)(Cl)C(Cl)=C(Cl)C3(Cl)Cl)C(Cl)(Cl)C(Cl)=C(Cl)C1(Cl)Cl (stereo not drawn)
3. Cc1nn(CC(=O)O)c2c1C(=O)CC(C)(C)C2
4. COc1ccc(-c2nc3sc(C)nn3c2-c2nc3cc(C)c(C)cc3[nH]2)cc1

["43.4% (inactive)", "97% (inactive)", "104% (inactive)", "89.6% (inactive)"]

The following molecules each have a reported value; give each one's growth.
1. Cc1ccc(N(CSc2ccc(Cl)cc2)CSc2ccc(Cl)cc2)cc1
2. CCC(C)[C@H]1O[C@]2(CC[C@@H]1C)C[C@@H]1C[C@@H](C/C=C(\C)[C@@H](OC3C[C@H](OC)C(O[C@H]4C[C@H](OC)[C@@H](O)[C@H](C)O4)[C@H](C)O3)[C@@H](C)/C=C/C=C3\CO[C@@H]4[C@H](O)C(C)=C[C@@H](C(=O)O1)[C@]34O)O2 (stereo partly drawn)

1. 66.9% (inactive)
2. 42.4% (inactive)

The following molecules each have a reported value; give each one's growth.
1. CCCCCCCC/C=C\CCCCCCCCOc1cccc(CC(=O)NCC[N+]2(C)CCOCC2)c1
2. CC1(C)CC(=O)C2=C(C1)Nc1cc3c(cc1C2c1ccc(F)cc1)OCO3 (stereo not drawn)
3. C(=C\c1ccccc1)/CN1CCN(C(c2ccccc2)c2ccccc2)CC1

93.8% (inactive)
97% (inactive)
85.7% (inactive)

The following molecules each have a reported value; give each one's growth.
1. CC1=C(C/C=C(\C)CCC[C@H](C)CCC[C@H](C)CCCC(C)C)C(=O)c2ccccc2C1=O
2. Cc1ccc(NS(=O)(=O)c2ccc(-c3cnc(C4CC4)o3)cc2)cc1

1: 100% (inactive); 2: 49.3% (inactive)

The reported measurements were obtained from PubChem BioAssay (NCI).
